Tested on: Cladosporium herbarum
Test: MIC in-vitro inhibition assay, antifungal (Example 2)
Assay type: cell-based
Conditions: complete inhibition of spore germination/mycelial growth; Table 1
No end group written: not given here.

substance	experimental_target	Minimal inhibition concentration (MIC) (µg/mL)
KRKLIFLAAFLAALALFKKR-NH2 [SP15]	Cladosporium herbarum	40
KRRLIARILRLAARALVKKR (also: D-amino acids at unstated positions) [SP13-D, polypeptide SP13 with D-amino acids incorporated; positions not readable in the text]	Cladosporium herbarum	5
KRRLIARILRLAARALVKKR-NH2 [SP13]	Cladosporium herbarum	20
KRRLAAFRAFRGALKSVLKK-NH2 [SP16]	Cladosporium herbarum	20
